- system.tested: AeKir1 (Aedes aegypti)
- Sequence (L0EQS9 1-486): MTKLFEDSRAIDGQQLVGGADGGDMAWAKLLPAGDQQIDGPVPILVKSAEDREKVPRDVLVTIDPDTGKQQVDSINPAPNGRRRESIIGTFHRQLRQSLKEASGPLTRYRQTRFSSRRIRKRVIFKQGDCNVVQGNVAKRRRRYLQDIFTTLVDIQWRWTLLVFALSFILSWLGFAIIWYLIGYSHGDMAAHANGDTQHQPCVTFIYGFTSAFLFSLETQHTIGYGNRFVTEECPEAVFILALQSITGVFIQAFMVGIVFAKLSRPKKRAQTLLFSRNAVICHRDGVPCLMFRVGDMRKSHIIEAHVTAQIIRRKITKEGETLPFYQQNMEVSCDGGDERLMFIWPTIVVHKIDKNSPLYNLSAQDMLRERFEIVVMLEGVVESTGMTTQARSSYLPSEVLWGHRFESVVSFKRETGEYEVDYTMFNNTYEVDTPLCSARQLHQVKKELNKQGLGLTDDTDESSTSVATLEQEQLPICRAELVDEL
- method: Tl+ flux assay, AeKir1
measurement.label: IC50 (nM)

chem.smiles | measurement.label | value
O=C(Cn1nc(C(F)(F)F)c2c1CCCC2)N1CCCc2ccccc21 | IC50 | 1700

###

- system.tested: UniProt:A0A075M2J8
- Sequence (A0A075M2J8 1-555): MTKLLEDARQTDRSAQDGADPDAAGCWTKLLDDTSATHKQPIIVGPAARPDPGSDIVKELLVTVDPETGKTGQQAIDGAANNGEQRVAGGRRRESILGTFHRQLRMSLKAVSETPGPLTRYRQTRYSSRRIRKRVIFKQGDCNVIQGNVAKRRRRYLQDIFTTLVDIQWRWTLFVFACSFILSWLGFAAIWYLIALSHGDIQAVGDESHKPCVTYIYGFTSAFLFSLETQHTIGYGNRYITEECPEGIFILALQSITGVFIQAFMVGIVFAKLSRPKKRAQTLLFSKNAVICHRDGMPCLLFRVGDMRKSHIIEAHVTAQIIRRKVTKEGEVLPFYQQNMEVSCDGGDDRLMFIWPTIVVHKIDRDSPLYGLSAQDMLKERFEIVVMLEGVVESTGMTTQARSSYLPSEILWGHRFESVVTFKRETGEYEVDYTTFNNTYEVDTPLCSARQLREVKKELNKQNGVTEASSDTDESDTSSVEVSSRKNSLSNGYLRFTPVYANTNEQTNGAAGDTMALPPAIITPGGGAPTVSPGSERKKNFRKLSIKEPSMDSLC
- method: Whole-cell patch clamp of AnKir1 in HEK-293T cells
- Assay type: cell-based
- details: currents at -120 mV
- Method: Transiently transfected HEK-293T cells expressing AnKir1 cells were voltage clamped in the whole-cell configuration of the patch clamp technique, as described previously. […] Patch electrodes were pulled from silanized 1.5 mm outer diameter borosilicate microhematocrit tubes using a P-1000 Flaming/Brown micropipette puller (Sutter Instrument, Novato CA, USA). […] Whole-cell currents were recorded under voltage-clamp conditions using an Axopatch 200B amplifier (Molecular D evices, Sunn yvale, CA). […]
measurement.label: IC50 (µM)

chem.smiles | value
O=C(Cn1ncc2c1CCOC2)N1CCCc2ccccc21 | 0.717
O=C(Cn1nc(C(F)(F)F)c2c1CCCC2)NC1CCC1 | 29.7
O=C(Cn1nc(C(F)(F)F)c2c1CCCC2)N1CCCc2ccccc21 | 0.496
